# System: TALE test backbone, repeat 5 RVD NA (synthetic (Xanthomonas TALE))
# conditions.used: ELISA
Would you kindly list binding signal (normalized ELISA) for each of these sequences?
Give bare numbers.

These recorded examples may help you get a feel for the data.
| record.sequence | binding signal (normalized ELISA) |
| --- | --- |
| TTGACCATCCT (double strand) [CCA target] | 0.67 |
| TTGACAATCCT (double strand) [CAA target] | 0.59 |
| TTGACGATCCT (double strand) [CGA target] | 0.41 |

Now consider the entry below.
// fetch TALE test backbone, repeat 5 RVD NA (synthetic (Xanthomonas TALE)) binding signal (normalized ELISA) for TTGACTATCCT (double strand) [CTA target] 1.72

* * *

# Tested on: TALE test backbone, repeat 5 RVD KS (synthetic (Xanthomonas TALE))
# conditions.used: ELISA
value.kind: binding signal (normalized ELISA)
Answers are plain numbers.

These recorded examples may help you get a feel for the data.
| record.sequence | study.target | binding signal (normalized ELISA) |
| --- | --- | --- |
| TTGACAATCCT (double strand) [CAA target] | TALE test backbone, repeat 5 RVD KS (synthetic (Xanthomonas TALE)) | 0.95 |
| TTGACCATCCT (double strand) [CCA target] | TALE test backbone, repeat 5 RVD KS (synthetic (Xanthomonas TALE)) | 0.78 |
| TTGACTATCCT (double strand) [CTA target] | TALE test backbone, repeat 5 RVD KS (synthetic (Xanthomonas TALE)) | 0.81 |

Now consider the entry below.
Entry TTGACGATCCT (double strand) [CGA target] has what binding signal (normalized ELISA)? 0.74

* * *

# Test system: TALE test backbone, repeat 5 RVD NI (Xanthomonas sp. (engineered))
# conditions.used: RVD NI
value.kind: binding signal (normalized ELISA)
Give bare numbers.

| record.sequence | binding signal (normalized ELISA) |
| --- | --- |
| TTGACTATCCT (double strand) [CTA target] | 0.02 |
| TTGACAATCCT (double strand) [CAA target] | 0.6 |
| TTGACGATCCT (double strand) [CGA target] | 0.02 |

// fetch TALE test backbone, repeat 5 RVD NI (Xanthomonas sp. (engineered)) binding signal (normalized ELISA) for TTGACCATCCT (double strand) [CCA target] 0.04

* * *

# System: TALE test backbone, repeat 5 RVD HG (synthetic (Xanthomonas TALE))
# conditions.used: ELISA
Would you kindly list binding signal (normalized ELISA) for each of these sequences?
Numbers only.

| record.sequence | binding signal (normalized ELISA) |
| --- | --- |
| TTGACAATCCT (double strand) [CAA target] | 0.38 |
| TTGACCATCCT (double strand) [CCA target] | 0.11 |
| TTGACGATCCT (double strand) [CGA target] | 0.11 |

Now consider the entry below.
Entry TTGACTATCCT (double strand) [CTA target] has what binding signal (normalized ELISA)? 1.49
